Reported Particle size (nm) values for a set of compounds
# measurement-description: Particle size and PDI of lipid nanoparticles by dynamic light scattering
# Format: physicochemical
# details: lipid nanoparticle with the cationic lipid, cholesterol, DSPC, DMG-PEG2000 (50/38.5/10/1.5 mol%), luciferase mRNA, N/P 6

- compound: "CCCCCCCCN(CCCCCCCC)CCOC(=O)C(C)(C)CCCCCC(CCCCCC(C)(C)C(=O)OCCN(CCCCCCCC)CCCCCCCC)OC(=O)CCN(C)C"
  readout-unit: "nm"
  Particle size (nm): 91.68
- compound: "CC(C)CCCCCCCOC(=O)CCC(C)(C)CCCC(CCCC(C)(C)CCC(=O)OCCCCCCCC(C)C)OC(=O)CCCN(C)C"
  readout-unit: "nm"
  Particle size (nm): 83.01
- compound: "CCCCCCCCCCOC(=O)C(C)(C)CCCCCC(CCCCCC(C)(C)C(=O)OCCCCCCCCCC)OC(=O)CCN1CCOCC1"
  readout-unit: "nm"
  Particle size (nm): 18.17
- compound: "CCCCCCC(CCCCCC)CCOC(=O)CCC(C)(C)CCCC(CCCC(C)(C)CCC(=O)OCCC(CCCCCC)CCCCCC)OC(=O)CCCN(C)C"
  readout-unit: "nm"
  Particle size (nm): 83.10
- compound: "CCCCCCCCCSC(=O)C(C)(C)CCCCCC(CCCCCC(C)(C)C(=O)SCCCCCCCCC)OC(=O)CC1CCN(C)CC1"
  readout-unit: "nm"
  Particle size (nm): 121.41
- compound: "CCCCCCC/C=C\\COC(=O)CC(C)(C)CCCCC(CCCCC(C)(C)CC(=O)OCC(CCCCC)CCCCCCC)OC(=O)CCCN(C)C (centres unmarked)"
  readout-unit: "nm"
  Particle size (nm): 107.87
- compound: "CCCCCCCCCCOC(=O)C(C)(C)CCCCCC(CCCCCC(C)(C)C(=O)OCCCCCCCCCC)OC(=O)CCN(C)C"
  readout-unit: "nm"
  Particle size (nm): 80.07
- compound: "CCCCCCCCCCSC(=O)C(C)(C)CCCCCC(CCCCCC(C)(C)C(=O)OCCCCCCCCC)OC(=O)CCCN(C)C (centres unmarked)"
  readout-unit: "nm"
  Particle size (nm): 83.90
